So I've got a bunch of molecules here, and I need their Biodistribution: Lrg Int. values.
# System: PSMA + PC-3 PiP and PSMA − PC-3 flu tumor xenografts
# Test settings: 21 H post-injection
Numbers only, in % ID/g.

Some entries whose results are on file:
INSERT INTO measurements (molecule, tested_system, unit, meas_value) VALUES
  ('N=C(N)NCc1ccc(C(=O)NCCCCC(NC(=O)CCCCCCC(=O)NCCCC[C@H](NC(=O)N[C@@H](CCC(=O)O)C(=O)O)C(=O)O)C(=O)O)cc1[211At] (stereo partly shown) [[^211At] labeled PSMA-904]', 'PSMA + PC-3 PiP and PSMA − PC-3 flu tumor xenografts', '% ID/g', 8.55),
  ('N=C(N)NCc1ccc(C(=O)NCCCCC(NC(=O)CCCCCCC(=O)NCCCC[C@H](NC(=O)N[C@@H](CCC(=O)O)C(=O)O)C(=O)O)C(=O)O)cc1[131I] (stereo partly shown) [[^131I] labeled PSMA-904]', 'PSMA + PC-3 PiP and PSMA − PC-3 flu tumor xenografts', '% ID/g', 14.5),
  ('O=C(O)CC[C@H](NC(=O)N[C@@H](CCC(=O)NCCc1ccc([131I])cc1)C(=O)O)C(=O)O [[^131I]HS-549]', 'PSMA + PC-3 PiP and PSMA − PC-3 flu tumor xenografts', '% ID/g', 0.63);

Okay, now this molecule:
// query Quick one: Biodistribution: Lrg Int. of O=C(O)CC[C@H](NC(=O)N[C@@H](CCC(=O)NCCc1ccc([211At])cc1)C(=O)O)C(=O)O [[^211At]HS-549] ?
// result 0.93

====

# Test system: PSMA + PC-3 PiP and PSMA − PC-3 flu tumor xenografts
# Test settings: 21 H post-injection
Value kind: Biodistribution: muscle

Some entries whose results are on file:
INSERT INTO assay_data (molecule, tested_system, meas_value) VALUES
  ('O=C(O)CC[C@H](NC(=O)N[C@@H](CCC(=O)NCCc1ccc([211At])cc1)C(=O)O)C(=O)O [[^211At]HS-549]', 'PSMA + PC-3 PiP and PSMA − PC-3 flu tumor xenografts', '0.29 ± 0.09 % ID/g'),
  ('O=C(O)CC[C@H](NC(=O)N[C@@H](CCC(=O)NCCc1ccc([131I])cc1)C(=O)O)C(=O)O [[^131I]HS-549]', 'PSMA + PC-3 PiP and PSMA − PC-3 flu tumor xenografts', '0.16 ± 0.04 % ID/g');

// query Quick one: Biodistribution: muscle of N=C(N)NCc1ccc(C(=O)NCCCCC(NC(=O)CCCCCCC(=O)NCCCC[C@H](NC(=O)N[C@@H](CCC(=O)O)C(=O)O)C(=O)O)C(=O)O)cc1[211At] (stereo partly drawn) [[^211At] labeled PSMA-904] ?
// result 0.22 ± 0.06 % ID/g

====

# Test system: PSMA + PC-3 PiP and PSMA − PC-3 flu tumor xenografts
# Test settings: 1 H post-injection
Value kind: Biodistribution: spleen
Write the numeric value and follow it with the unit.

Some entries whose results are on file:
INSERT INTO assay_data (molecule, meas_value) VALUES
  ('O=C(O)CC[C@H](NC(=O)N[C@@H](CCC(=O)NCCc1ccc([131I])cc1)C(=O)O)C(=O)O [[^131I]HS-549]', '6.76 ± 3.42 % ID/g'),
  ('N=C(N)NCc1ccc(C(=O)NCCCC[C@H](NC(=O)N[C@@H](CCC(=O)O)C(=O)O)C(=O)O)cc1[131I] [[^131I] labeled 7 (PSMA-620)]', '17.1 ± 3.71 % ID/g'),
  ('O=C(O)CC[C@H](NC(=O)N[C@@H](CSCc1ccc([125I])cc1)C(=O)O)C(=O)O [[^125I] labeled DCIBC]', '5.1 ± 2.2 % ID/g');

Report Biodistribution: spleen for every entry below.
1. O=C(O)CC[C@H](NC(=O)N[C@@H](CCC(=O)NCCc1ccc([211At])cc1)C(=O)O)C(=O)O [[^211At]HS-549]
2. O=C(O)CC[C@H](NC(=O)NC(CCCCNC(=O)c1ccc([211At])cc1)C(=O)O)C(=O)O (some centres unmarked) [[^211At]YC-I-27]

// result
["8.79 ± 2.09 % ID/g", "29.2 ± 10.2 % ID/g"]

====

# Test system: PSMA + PC-3 PiP and PSMA − PC-3 flu tumor xenografts
# Test settings: 1 H post-injection
So I've got a bunch of compounds here, and I need their Biodistribution: kidney values.
Answers are plain numbers, in % ID/g.

INSERT INTO results (compound, value_kind, meas_value) VALUES
  ('O=C(O)CC[C@H](NC(=O)NC(CCCCNC(=O)c1ccc([211At])cc1)C(=O)O)C(=O)O (stereo partly shown) [[^211At]YC-I-27]', 'Biodistribution: kidney', 71.5),
  ('N=C(N)NCc1ccc(C(=O)NCCCCC(NC(=O)CCCCCCC(=O)NCCCC[C@H](NC(=O)N[C@@H](CCC(=O)O)C(=O)O)C(=O)O)C(=O)O)cc1[131I] (stereo partly shown) [[^131I] labeled PSMA-904]', 'Biodistribution: kidney', 121),
  ('N=C(N)NCc1ccc(C(=O)NCCCC[C@H](NC(=O)N[C@@H](CCC(=O)O)C(=O)O)C(=O)O)cc1[131I] [[^131I] labeled 7 (PSMA-620)]', 'Biodistribution: kidney', 103),
  ('O=C(O)CC[C@H](NC(=O)N[C@@H](CCC(=O)NCCc1ccc([211At])cc1)C(=O)O)C(=O)O [[^211At]HS-549]', 'Biodistribution: kidney', 46.7),
  ('N=C(N)NCc1ccc(C(=O)NCCCCC(NC(=O)CCCCCCC(=O)NCCCC[C@H](NC(=O)N[C@@H](CCC(=O)O)C(=O)O)C(=O)O)C(=O)O)cc1[211At] (stereo partly shown) [[^211At] labeled PSMA-904]', 'Biodistribution: kidney', 86.5),
  ('O=C(O)CC[C@H](NC(=O)N[C@@H](CSCc1ccc([125I])cc1)C(=O)O)C(=O)O [[^125I] labeled DCIBC]', 'Biodistribution: kidney', 77);

Okay, now this compound:
// query Quick one: Biodistribution: kidney of O=C(O)CC[C@H](NC(=O)N[C@@H](CCC(=O)NCCc1ccc([131I])cc1)C(=O)O)C(=O)O [[^131I]HS-549] ?
// result 106

====

# System: PSMA + PC-3 PiP and PSMA − PC-3 flu tumor xenografts
# Test settings: 2 H post-injection
Value kind: Biodistribution: blood

INSERT INTO measurements (molecule, tested_system, meas_value) VALUES
  ('O=C(O)CC[C@H](NC(=O)N[C@@H](CCCCNC(=O)c1ccc([131I])cc1)C(=O)O)C(=O)O [[^131I]YC-I-27]', 'PSMA + PC-3 PiP and PSMA − PC-3 flu tumor xenografts', '0.86 ± 0.20 % ID/g'),
  ('O=C(O)CC[C@H](NC(=O)N[C@@H](CCC(=O)NCCc1ccc([131I])cc1)C(=O)O)C(=O)O [[^131I]HS-549]', 'PSMA + PC-3 PiP and PSMA − PC-3 flu tumor xenografts', '2.92 ± 0.32 % ID/g'),
  ('N=C(N)NCc1ccc(C(=O)NCCCCC(NC(=O)CCCCCCC(=O)NCCCC[C@H](NC(=O)N[C@@H](CCC(=O)O)C(=O)O)C(=O)O)C(=O)O)cc1[131I] (some centres unmarked) [[^131I] labeled PSMA-904]', 'PSMA + PC-3 PiP and PSMA − PC-3 flu tumor xenografts', '0.18 ± 0.07 % ID/g'),
  ('O=C(O)CC[C@H](NC(=O)N[C@@H](CSCc1ccc([125I])cc1)C(=O)O)C(=O)O [[^125I] labeled DCIBC]', 'PSMA + PC-3 PiP and PSMA − PC-3 flu tumor xenografts', '4.9 ± 2.6 % ID/g'),
  ('N=C(N)NCc1ccc(C(=O)NCCCC[C@H](NC(=O)N[C@@H](CCC(=O)O)C(=O)O)C(=O)O)cc1[131I] [[^131I] labeled 7 (PSMA-620)]', 'PSMA + PC-3 PiP and PSMA − PC-3 flu tumor xenografts', '0.58 ± 0.08 % ID/g');

Report Biodistribution: blood for every entry below.
1. N=C(N)NCc1ccc(C(=O)NCCCCC(NC(=O)CCCCCCC(=O)NCCCC[C@H](NC(=O)N[C@@H](CCC(=O)O)C(=O)O)C(=O)O)C(=O)O)cc1[211At] (some centres unmarked) [[^211At] labeled PSMA-904]
2. O=C(O)CC[C@H](NC(=O)N[C@@H](CCC(=O)NCCc1ccc([211At])cc1)C(=O)O)C(=O)O [[^211At]HS-549]

// result
1. 0.35 ± 0.03 % ID/g
2. 2.87 ± 0.40 % ID/g

// query Quick one: Biodistribution: blood of O=C(O)CC[C@H](NC(=O)NC(CCCCNC(=O)c1ccc([211At])cc1)C(=O)O)C(=O)O (some centres unmarked) [[^211At]YC-I-27] ?
// result 1.26 ± 0.15 % ID/g
